B1: tRNA (parent)
chain: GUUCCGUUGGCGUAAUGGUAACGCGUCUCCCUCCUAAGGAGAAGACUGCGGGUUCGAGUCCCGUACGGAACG

Variants of: B1
Protocol Text: yeast fitness relative to wild type (ratio to wild type); higher = fitter; tRNA-Arg(CCU), competitive growth, 37 C, YPD
This sample holds only a part of the variants without activity.
Field: yeast fitness. Provide a value for each of the variants that follow.
Reply with the value as a number alone.

Problem: Item GUUCCGUUGGCGUAAUGGUAACGCGUCUCCCUCCUAAGGAGAAGACUGCGGGUUCGAGUCCCGUACGCAGCG [G68C A70G] has what recorded yeast fitness?
Solution: 0.897

Problem: Item GUUCCGUUGCCGUAAUGGUAACGCGUCUCCCUCCUCAGGAGAAGACUGCGGGUUCGAGUCCCGUACGGAACG [G10C A36C] has what recorded yeast fitness?
Solution: 0.712

Problem: Item GUUCCGUUGGCGUAAUGGUAUCGCGUCUCCCUCCUAAGGAGAAGACUGCGGGUUCGAGUCCGGUACGGAACG [A21U C62G] has what recorded yeast fitness?
Solution: 0.586

Problem: Item GUCCCGUUGGCGAAAUGGUAACGCGUCUCCUUCCUAAGGAAAAGACUGCGGGUUCGAGUCCCGUACGGAACG [U3C U13A C31U G41A] has what recorded yeast fitness?
Solution: 0.524

Problem: Item GUUCCGUUGCCGUAAUGGUAACGCGUCUCCCUCAUAAGGAGAAGACUGCGGGUUCGUGUCCCGUACGGAACG [G10C C34A A57U] has what recorded yeast fitness?
Solution: 0.577

Problem: Item GCUCCGUUGGCGUAAUGGUAACGCGUCUCCCUCCUAAGGAGCAGACUGCGGGUUCGAGUCCCGUACGGAACG [U2C A42C] has what recorded yeast fitness?
Solution: 0.914

Problem: Item GUUCCGUUGGCGUAAUGGUAACGCGUCUCCCUCCUAAGGGGAAGACUGCGGGUUCGAGUCUCGUACGGAACG [A40G C61U] has what recorded yeast fitness?
Solution: 0.741

Problem: Item GUUCCGUUGGCGUAAUGGUAACGCGUCCCCCUCCUCAGGAGAAGACUGCGGGUUCGAGUCCCGUACCGAACG [U28C A36C G67C] has what recorded yeast fitness?
Solution: 0.539

Problem: Item GUUCCGUUGGCGUAAUGGUAACGCGUCUCCCUCCUAAGGAGAAGACUGCGGGUUCGAGGCCCGUACAGAACG [U59G G67A] has what recorded yeast fitness?
Solution: 0.796

Problem: Item GUUACGUUGGCGUAAUGGUAACGCGUCUCCCUCCUAAGGAGAAGACUGCGAGUUCGAGUCCCGUACGGAACG [C4A G51A] has what recorded yeast fitness?
Solution: 0.725

Problem: Item GUUCCGUUGGCGUAAUGGUAACGCGUCUCCCUCCUAAGGAGCAGCCUACGGGUUCGAGUCCCGUACGGAACG [A42C A45C G48A] has what recorded yeast fitness?
Solution: 0.958

Problem: Item GUUCCGUUGGCGUAAUGGUAACGCGUCUCCUUCCUAAGGAGAAGUCUGCGGGUUCGAGUCCCGUACGGAACG [C31U A45U] has what recorded yeast fitness?
Solution: 1.12

Problem: Item GUUCCGUUGGCGUAAUGGUAACGCGUCUCCCUCCUAGGGAGAGGACUGCGGGUUCGAGUCCCGUACGGAACG [A37G A43G] has what recorded yeast fitness?
Solution: 0.734

Problem: Item GUUCCGUUGCCGUAAUGGUAACGCGUCUCCCUCCUAAGGAGAAGACUGCGGGUUCGAGUCCCGUGCGGAACG [G10C A65G] has what recorded yeast fitness?
Solution: 0.719

Problem: Item GUUCCAAUGGCGUAAUGGUAACGCGUCUCCCUCCUAAGGAGAAGACUGCGGGUUCGAGUCCCGUACGGAACG [G6A U7A] has what recorded yeast fitness?
Solution: 0.749

Problem: Item GUUCCGUUGGGGUAAUGGUAACGCGUCUCCAUCCUAAGGAGAAGACUGCGGGUUCGAGUCCCGUACGGAACG [C11G C31A] has what recorded yeast fitness?
Solution: 0.508

Problem: Item GUUCCGUUGGCGUAGUGGUAGCGCGUCUCCCUCCUAAGGAGAAGACUGCGGCUUCGAGUCCAGUACGGAACG [A15G A21G G52C C62A] has what recorded yeast fitness?
Solution: 0.616

Problem: Item GUUCCGUUGGCGUAAUGGUAUCGCGUAUCCCUCCUAAGGACAAAACUGCGGGUUUGAGUCCGGUACGGAACG [A21U C27A G41C G44A C55U C62G] has what recorded yeast fitness?
Solution: 0.648

Problem: Item GUUCCCUUGGCGUAAUGGUAACGCAUCUCCCUCCUAAGGAGAAGACUGCGGGUUCGAGUCCCGUGCGGAACG [G6C G25A A65G] has what recorded yeast fitness?
Solution: 0.595

Problem: Item GUUCCGUUGGCGUAAUGGUAAUGCGUCUCCCUCCUAAGGAGAAGACUGCGGGUUGGAGUCCCGUACGGAACG [C22U C55G] has what recorded yeast fitness?
Solution: 0.578

Problem: Item GUUCCGUUGGUGUAAUGGAAACGCGUCUCCCUCCUAAGGAGAAGACUGCGGGUUCGAGUCCCCUACGGAACG [C11U U19A G63C] has what recorded yeast fitness?
Solution: 0.53
